Below, each of the binders is paired with its reported glycan array binding signal (z-score) value.
# test_system: Fuc(a1-2)Gal(b1-3)GlcNAc
# assay_comment: glycan array binding signal (z-score within array); higher = stronger binding
# measurement_context: glycan notation: IUPAC condensed, linker removed
This excerpt belongs to a sample that is enriched for the strongest signals.
Quick one: just the number, no unit, thanks!

Langerin CRD (Homo sapiens), Q9UJ71 (protein) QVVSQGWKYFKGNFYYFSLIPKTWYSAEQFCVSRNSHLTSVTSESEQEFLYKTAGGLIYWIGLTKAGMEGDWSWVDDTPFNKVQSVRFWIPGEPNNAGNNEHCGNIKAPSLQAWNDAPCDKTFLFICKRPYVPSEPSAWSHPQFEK : 0

Turning now to a further record.
Problem: Recorded glycan array binding signal (z-score) for OVGAL11 (Ovis aries), AAF64320 (protein) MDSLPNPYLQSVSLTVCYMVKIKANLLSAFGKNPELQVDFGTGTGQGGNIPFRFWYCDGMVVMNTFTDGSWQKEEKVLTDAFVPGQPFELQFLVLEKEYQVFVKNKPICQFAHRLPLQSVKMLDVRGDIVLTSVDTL , please?
Solution: -0.096
